For reference, the following Ki results for Carbonic anhydrase 12 (Homo sapiens, UniProt O43570) were taken from various sources.
measurement-type: Ki (nM)

(P) COc1ccc(/C=C2/S/C(=N/c3ccc(S(N)(=O)=O)cc3)NC2=O)cc1
(Q) NS(=O)(=O)c1ccc(NC2=CC(c3ccco3)N(c3ccc(S(N)(=O)=O)cc3)C2=O)cc1 (stereo unspecified)
(R) CCN1C(=O)/C(=C\c2ccc(Cl)cc2)S/C1=N/c1ccc(S(N)(=O)=O)cc1
Problem: Sort the compounds on Ki; start with the lowest figure. Note for the reader: the ranking is given by listing the labels in the order requested.
Solution: Q, R, P

(A) CCCNCCCCN
(B) NS(=O)(=O)c1cc(C(=O)N/N=C/c2ccc(O)cc2O)c(SCc2ccccc2)cc1Cl
Problem: # query: argmin of Ki over A and B Give the chosen item's label as your response.
Solution: B

(I) CCCCOc1ccc(C2C=C(Nc3ccc(S(N)(=O)=O)cc3)C(=O)N2c2ccc(S(N)(=O)=O)cc2)cc1 (stereo unspecified)
(II) N#Cc1ccc(C2SCCC(=O)N2c2ccc(S(N)(=O)=O)cc2)cc1 (racemic)
Problem: Please let me know which one, I or II , has a lower measured Ki value. Please respond with the label that marks your chosen entry.
Solution: I

(I) COc1cc(C2C=C(Nc3ccc(S(N)(=O)=O)cc3)C(=O)N2c2ccc(S(N)(=O)=O)cc2)ccc1O (stereo unspecified)
(II) NS(=O)(=O)c1ccc(NC2=CC(/C=C/c3ccccc3)N(c3ccc(S(N)(=O)=O)cc3)C2=O)cc1 (stereo unspecified)
(III) N#Cc1ccc(C2C=C(Nc3ccc(S(N)(=O)=O)cc3)C(=O)N2c2ccc(S(N)(=O)=O)cc2)cc1 (stereo unspecified)
(IV) O=[N+]([O-])c1ccc(S(=O)(=O)NCC(F)CCl)cc1 (stereo unspecified)
(V) NS(=O)(=O)c1ccc(/N=C2\NC(=O)/C(=C3\C(=O)Nc4ccccc43)S2)cc1
Problem: // ranking: key=Ki, reverse=True Answer format: the labels, ordered as requested.
Solution: IV, III, V, I, II
(IV: 680 nM, III: 74.5 nM, V: 33.5 nM, I: 17.1 nM, II: 8.5 nM)

(I) NS(=O)(=O)c1ccc(NC2=CC(c3ccccc3)N(c3ccc(S(N)(=O)=O)cc3)C2=O)cc1 (stereo unspecified)
(II) NS(=O)(=O)c1ccc(N2C(=O)CCSC2c2ccc([N+](=O)[O-])cc2)cc1 (racemic)
(III) NS(=O)(=O)c1cc(C(=O)N/N=C/c2ccc(O)cc2O)c(SCc2ccc(F)cc2)cc1Cl
Problem: Which order do these items take when sorted by rising Ki? List them. Lab note: record answer as labels in requested order.
Solution: II, I, III
(II: 7.1 nM, I: 16.8 nM, III: 80.3 nM)

(A) NS(=O)(=O)c1ccc(NC2=CC(c3ccc(C(F)(F)F)cc3)N(c3ccc(S(N)(=O)=O)cc3)C2=O)cc1 (stereo unspecified)
(B) NS(=O)(=O)c1ccc(N2C(=O)CCSC2c2ccc(F)cc2)cc1 (racemic)
Problem: Rank A against B by their Ki values and give the higher one. Lab note: record the label of whichever item you select.
Solution: A

(1) NS(=O)(=O)c1cc(C(=O)N/N=C/c2ccc(Br)cc2O)c(SCc2ccc(F)cc2)cc1Cl
(2) CC(F)CN(CCCN)S(=O)(=O)c1ccc([N+](=O)[O-])cc1 (stereo unspecified)
(3) COc1cc(OC)c(C2C=C(Nc3ccc(S(N)(=O)=O)cc3)C(=O)O2)cc1OC (stereo unspecified)
(4) CC(C)c1ccc(C2C=C(Nc3ccc(S(N)(=O)=O)cc3)C(=O)N2c2ccc(S(N)(=O)=O)cc2)cc1 (stereo unspecified)
(5) NS(=O)(=O)c1ccc(N2C(=O)CCSC2c2ccc(Cl)cc2)cc1 (racemic)
Problem: Returns the items ordered by Ki, from maximum to minimum. Note for the reader: the ranking is given by listing the labels in the order requested.
Solution: 2, 1, 4, 3, 5
(2: 5200 nM, 1: 695 nM, 4: 61.9 nM, 3: 36.5 nM, 5: 8.2 nM)

(I) CN1C(=O)/C(=C\c2ccc(Cl)cc2)S/C1=N/c1ccc(S(N)(=O)=O)cc1
(II) NS(=O)(=O)c1cc(C(=O)N/N=C/c2ccc(Br)cc2O)c(SCc2ccccc2)cc1Cl
Problem: Compare I and II by numeric Ki and name the larger one. Reply briefly: the label of your chosen item.
Solution: II
